targetSystem: Cytochrome P450 2C9 (Homo sapiens)
assayMethodText: Cytochrome panel assay with activity outcomes; also: % is scaled to controls: 0 for no effect and ±100 for the full control effect
assayContext: recombinant CYP, pro-luciferin dealkylation, luminescence, p450-cyp2c9; series mostly up to 57.1 µM
Method: The P450 gene superfamily is involved in the metabolism and clearance of xenobiotics. This assay used various human CYP P450 isozymes to measure the dealkylation of various pro-luciferin substrates to luciferin. The luciferin is then measured by luminescence after the addition of a luciferase detection reagent. […] Inhibitors and some substrates limit the production of luciferin, and decrease measured luminescence. […] 8, Detection, 1 sec, ViewLux luminescent read […]
Among all 16,000 compounds or so, about 4,000 (25%) were called active. About 26% were inconclusive and are not listed. Not all results are given here.
Provide the reported activity, negative = inhibition of each item.

Req: What value of activity, negative = inhibition has been reported for the following compound? COc1ccc(O[C@H]2C=C[C@@H](c3ccccc3)O[C@H]2CO/N=C(/C)CCC(=O)OC[C@@H]2O[C@H](C#Cc3ccccc3)C=C[C@@H]2Oc2ccc(C)cc2)cc1
Resp: -16.6% [at 11.4 µM] (inactive)

Req: # get_value(readout='activity, negative = inhibition', item= COc1cc2c3cc1Oc1cc(ccc1O)C[C@@H]1c4c(cc(OC)c(O)c4Oc4ccc(cc4)C[C@H]3[N+](C)(C)CC2)CC[N+]1(C)C )
Resp: 4.34% [at 11.4 µM] (inactive)

Req: Which value of activity, negative = inhibition has been reported for Cc1cc(O)c(C(C)C)cc1NC(=O)Nc1cccc2ccccc12 in the records?
Resp: -7.14% [at 11.4 µM] (inactive)

Req: Name the recorded activity, negative = inhibition for CN(C)C(=O)c1ccc(-c2nc(NCc3ccccc3)c3ccccc3n2)cc1 .
Resp: -4.46% [at 2.29 µM] (inactive)

Req: Quick check: activity, negative = inhibition of CC(C)NC[C@@H](O)c1ccc(O)c2ncccc12 ?
Resp: 11% [at 11.4 µM] (inactive)

Req: Using the record for Cc1[nH]c2c(C)ccc(C)c2c1CC(=O)O , report its activity, negative = inhibition.
Resp: -16.5% [at 11.4 µM] (inactive)

Req: Given CC(C)(C)COS(=O)OCC(C)(C)C , state its recorded activity, negative = inhibition.
Resp: -7.38% [at 11.4 µM] (inactive)

Req: // returns reported activity, negative = inhibition for input C[C@H]1C[C@H]2[C@H]3CCC4=CC(=O)C=C[C@@]4(C)[C@]3(F)[C@H](O)C[C@]2(C)[C@@]1(O)C(=O)COP(=O)(O)O
Resp: 23.1% [at 11.4 µM] (inactive)

Req: # get_value(readout='activity, negative = inhibition', item= CN(C)Cc1ccccc1-c1ccc2ncnc(N3CCOCC3)c2c1 )
Resp: 8.68% [at 2.29 µM] (inactive)

Req: Would you kindly share the measured activity, negative = inhibition for C/C(CCC(=O)OC[C@@H]1O[C@H](C#Cc2ccccc2)C=C[C@@H]1Oc1ccc(C)cc1)=N/OC[C@@H](O)[C@H]1O[C@H]2OC(C)(C)O[C@H]2[C@@H]1O ?
Resp: -25.1% [at 11.4 µM] (inactive)

Req: Item CCCNC(=O)OC[C@H]1O[C@@H](CCO/N=C2/[C@H]3O[C@@H]3[C@@H](O)[C@H]3[C@H]2CCn2c(=O)n(-c4ccccc4)c(=O)n23)C=C[C@@H]1Oc1ccc(OC)cc1 has what recorded activity, negative = inhibition?
Resp: -24.3% [at 11.4 µM] (inactive)

Req: Which value of activity, negative = inhibition has been reported for Cc1ccc(S(=O)(=O)Nc2cc(=O)[nH]c3c2CCC3)cc1 in the records?
Resp: 8.32% [at 11.4 µM] (inactive)

Req: What activity, negative = inhibition value was documented for this compound, CO/N=C(/C)CCC(=O)OC[C@@H]1O[C@H](C#Cc2ccccc2)C=C[C@@H]1Oc1ccc(C)cc1 ?
Resp: -2.9% [at 11.4 µM] (inactive)

Req: Value lookup for activity, negative = inhibition; key = C#CCCCO/N=C1/C[C@@H](O)[C@@H](O)[C@@H]2[C@@H]3C(=O)N(C[C@@H]4CCCO4)C(=O)[C@H]3CC[C@H]12
Resp: -17.1% [at 11.4 µM] (inactive)

Req: activity, negative = inhibition lookup needed for NCC[C@H](N)C(=O)O , thanks.
Resp: 0.553% [at 11.4 µM] (inactive)

Req: Look at this compound and give its reported activity, negative = inhibition. C#CCCCO/N=C1/C[C@@H](O)[C@@H](O)[C@@H]2[C@@H]3C(=O)N(CC)C(=O)[C@H]3CC[C@H]12
Resp: 3.17% [at 11.4 µM] (inactive)

Req: GET /values?readout=activity, negative = inhibition&item= COc1ccc(O[C@H]2C=C[C@@H](c3ccccc3)O[C@@H]2CO/N=C(\C)CCN2CCc3nc(-c4ccccc4)c(-c4ccccc4)cc3C2)cc1
Resp: -13.6% [at 11.4 µM] (inactive)

Req: For CCCNC(=O)OC[C@@H]1O[C@H](c2ccccc2)C=C[C@@H]1Oc1ccc(OC)cc1 , what is its reported activity, negative = inhibition?
Resp: -29.7% [at 11.4 µM] (inactive)

Req: Entry CO[C@H]1COC(=O)CCC[C@H](C)[C@H](OC)COC(=O)C/C=C\[C@@H]1C has what activity, negative = inhibition?
Resp: 25.3% [at 11.4 µM] (inactive)

Req: Which value of activity, negative = inhibition has been reported for CCOc1ccccc1Nc1ccc(N)cc1S(=O)(=O)O in the records?
Resp: -6.23% [at 11.4 µM] (inactive)

Req: Suppose we examine the compound CCOC(=O)CCN1C(=O)[C@H]2[C@H]3[C@H](O)[C@H](O)C/C(=N/OC/C=C(\C)CCC=C(C)C)[C@H]3CC[C@@H]2C1=O ; what activity, negative = inhibition value has been reported?
Resp: 3.33% [at 11.4 µM] (inactive)

Req: May I ask what activity, negative = inhibition has been recorded for CN(Cc1ccco1)c1cc(-c2cccc(NS(C)(=O)=O)c2)ncn1 ?
Resp: -0.0487% [at 2.29 µM] (inactive)

Req: What does the data say about its activity, negative = inhibition? Entry: O=C(N/N=C\c1cccc(O)c1)c1ccncc1
Resp: 1.23% [at 11.4 µM] (inactive)

Req: Consider the compound CN1CCN(c2ncnc3ccc(-c4ccc(C(=O)N(C)C)cc4)cc23)CC1 and give its measured activity, negative = inhibition.
Resp: 17.4% [at 2.29 µM] (inactive)

Req: State the recorded activity, negative = inhibition for this entry: C/C(CCN1CCc2nc(-c3ccccc3)c(-c3ccccc3)cc2C1)=N\O[C@@H](C)c1cn([C@@H]2COC[C@@H]2O)nn1
Resp: -10.5% [at 11.4 µM] (inactive)

Req: Can you look up the measured activity, negative = inhibition of S=C1NCN2CCN(CC2)CNC(=S)C(=S)NCN2CCN(CC2)CNC1=S for me?
Resp: -2.75% [at 11.4 µM] (inactive)

Req: Can you look up the measured activity, negative = inhibition of C/C(CCC(=O)OC[C@@H]1O[C@H](C#Cc2ccccc2)C=C[C@@H]1Oc1ccc(C)cc1)=N/OC[C@@H](C)[C@H](OCc1ccccc1)C(C)C for me?
Resp: 12.5% [at 11.4 µM] (inactive)

Req: May I ask what activity, negative = inhibition has been recorded for CCOC(=O)N/N=C1/C[C@@H](O)[C@@H](O)[C@@H]2[C@@H]3C(=O)N(Cc4ccc5c(c4)OCO5)C(=O)[C@H]3CC[C@@H]12 ?
Resp: 1.72% [at 11.4 µM] (inactive)

Req: For the compound Oc1ccc(Cn2c(-c3ccc(O)cc3)nc3ccccc32)cc1 , what activity, negative = inhibition is on record?
Resp: 9.3% [at 11.4 µM] (inactive)

Req: Reported activity, negative = inhibition for CCCNC(=O)OC[C@@H]1O[C@H](CCO/N=C(\C)CCN2CCc3nc(CC)c(CC)cc3C2)C=C[C@@H]1Oc1ccc(OC)cc1 : what is it?
Resp: -21.2% [at 11.4 µM] (inactive)

Req: Form field: reported activity, negative = inhibition of CN(C)Cc1ccccc1-c1nc(N2CCOCC2)c2ccccc2n1
Resp: 5.66% [at 2.29 µM] (inactive)

Req: Can you look up the measured activity, negative = inhibition of CN(C)C(=O)c1ccc(-c2nccc(NCc3ccccc3)n2)cc1 for me?
Resp: -14% [at 2.29 µM] (inactive)

Req: So what does the record say about activity, negative = inhibition for NC1=C(O)C(=O)[C@H](c2c[nH]c3ccc(OCc4ccccc4)cc23)O1 ?
Resp: -27.4% [at 11.4 µM] (inactive)

Req: Value lookup for activity, negative = inhibition; key = Cc1noc(C)c1-c1cc(Nc2ccc(F)cc2)ncn1
Resp: -1.17% [at 2.29 µM] (inactive)

Req: I would be grateful if you could share the reported activity, negative = inhibition for COc1ccc(O[C@H]2C=C[C@@H](c3ccccc3)O[C@H]2COC(=O)CC/C(C)=N\O[C@@H](C)CN2CCCCc3nc(C)c(C)cc32)cc1 .
Resp: -28.1% [at 11.4 µM] (inactive)
